Target: PI3Kγ (p101/p110γ protein) (Homo sapiens, UniProt P48736)
Construct: HA
Sequence (P48736 whole entry, species assumed): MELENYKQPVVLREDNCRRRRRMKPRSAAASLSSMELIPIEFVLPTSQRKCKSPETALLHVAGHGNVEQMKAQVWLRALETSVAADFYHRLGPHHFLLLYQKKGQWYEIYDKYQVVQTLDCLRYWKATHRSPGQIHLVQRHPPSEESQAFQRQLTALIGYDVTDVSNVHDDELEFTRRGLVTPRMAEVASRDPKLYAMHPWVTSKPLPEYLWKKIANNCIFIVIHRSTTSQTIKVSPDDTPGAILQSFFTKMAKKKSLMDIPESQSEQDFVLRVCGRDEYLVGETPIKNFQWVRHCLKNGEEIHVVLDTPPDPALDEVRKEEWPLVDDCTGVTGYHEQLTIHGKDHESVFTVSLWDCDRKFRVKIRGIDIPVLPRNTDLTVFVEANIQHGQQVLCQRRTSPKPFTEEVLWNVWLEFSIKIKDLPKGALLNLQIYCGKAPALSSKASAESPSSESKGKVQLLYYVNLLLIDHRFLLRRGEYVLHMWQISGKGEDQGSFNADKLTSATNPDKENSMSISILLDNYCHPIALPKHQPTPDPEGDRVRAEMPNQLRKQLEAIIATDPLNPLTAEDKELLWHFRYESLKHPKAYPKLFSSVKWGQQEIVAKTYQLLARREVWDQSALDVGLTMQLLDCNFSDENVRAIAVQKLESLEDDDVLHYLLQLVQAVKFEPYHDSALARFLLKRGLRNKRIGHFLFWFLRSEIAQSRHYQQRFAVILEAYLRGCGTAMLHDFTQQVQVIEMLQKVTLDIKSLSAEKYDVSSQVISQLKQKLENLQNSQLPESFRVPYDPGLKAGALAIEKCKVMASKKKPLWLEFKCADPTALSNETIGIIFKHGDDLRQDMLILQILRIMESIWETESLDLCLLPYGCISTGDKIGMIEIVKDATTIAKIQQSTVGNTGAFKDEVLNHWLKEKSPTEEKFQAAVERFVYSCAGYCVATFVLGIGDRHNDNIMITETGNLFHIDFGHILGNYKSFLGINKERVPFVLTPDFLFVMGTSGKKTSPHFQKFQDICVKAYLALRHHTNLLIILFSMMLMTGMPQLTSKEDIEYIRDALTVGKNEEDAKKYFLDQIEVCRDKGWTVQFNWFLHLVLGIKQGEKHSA
Sequence (Q8WYR1 whole entry partner, species assumed): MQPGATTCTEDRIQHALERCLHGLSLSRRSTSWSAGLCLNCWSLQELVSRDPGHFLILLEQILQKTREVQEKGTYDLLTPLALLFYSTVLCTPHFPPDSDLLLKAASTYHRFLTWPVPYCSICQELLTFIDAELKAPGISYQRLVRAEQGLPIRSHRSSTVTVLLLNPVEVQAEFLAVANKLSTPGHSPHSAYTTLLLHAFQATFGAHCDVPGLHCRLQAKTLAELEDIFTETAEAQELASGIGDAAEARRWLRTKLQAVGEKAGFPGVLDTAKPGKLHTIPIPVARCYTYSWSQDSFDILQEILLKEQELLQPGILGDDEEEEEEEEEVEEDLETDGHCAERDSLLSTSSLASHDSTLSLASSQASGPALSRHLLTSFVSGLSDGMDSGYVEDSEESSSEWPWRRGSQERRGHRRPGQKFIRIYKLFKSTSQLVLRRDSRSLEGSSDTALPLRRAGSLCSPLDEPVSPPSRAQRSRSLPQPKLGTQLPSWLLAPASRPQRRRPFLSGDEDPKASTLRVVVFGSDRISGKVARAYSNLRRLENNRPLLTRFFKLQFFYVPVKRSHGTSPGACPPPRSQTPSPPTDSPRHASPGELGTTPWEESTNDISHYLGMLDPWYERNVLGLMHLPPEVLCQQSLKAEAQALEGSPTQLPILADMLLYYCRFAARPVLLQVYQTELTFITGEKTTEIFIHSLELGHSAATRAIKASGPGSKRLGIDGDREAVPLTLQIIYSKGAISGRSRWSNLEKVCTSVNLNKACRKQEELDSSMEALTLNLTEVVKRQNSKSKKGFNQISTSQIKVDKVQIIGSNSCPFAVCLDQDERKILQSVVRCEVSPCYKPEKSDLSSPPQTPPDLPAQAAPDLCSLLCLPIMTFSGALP
Test: PI3Kγ In Vitro Kinase Assay
Settings: purified recombinant p101/p110γ with G protein β1/γ2 subunits; 20 μM ATP, 25 μM PIP2; 20 minutes at room temperature
Procedure: Spodtera frugiperda cells, grown in ESF921 media, were coinfected with baculovirus expressing a glu-tagged p101 and baculovirus expressing an HA-tagged p110γ, at a 3:1 ratio of p101 baculovirus to p110γ baculovirus. […] The presence of radioactive lipid product (PIP3) was measured by adding Wallac Optiphase mix to each well and counting in a Wallac 1450 Trilux plate reader (PerkinElmer Life Sciences Inc., Boston, Mass. 02118).
pIC50: −log10 of the molar value.
OBSERVABLE: pIC50

In [3]: df
Out[3]:
                                   compound  quantitative_readout
0  O=C1NC(=S)SC1=Cc1ccc2c(c1)N(CCc1ccc(C(F)(F)F)cc1)C(=O)CO2                  8.70
1  CC(C)Sc1cccc(CN2C(=O)COc3ccc(C=C4SC(=S)NC4=O)cc32)c1                  8.00
2  C[C@@H]1CCC[C@H](C)N1Cc1ccc(CN2C(=O)COc3ccc(C=C4SC(=S)NC4=O)cc32)cc1                  8.52

[A] CC(C)n1cnc2cc(CN3C(=O)COc4ccc(C=C5SC(=S)NC5=O)cc43)ccc21
[B] COC(C)(C)c1cc(CN2C(=O)COc3ccc(/C=C4\SC(=S)NC4=O)cc32)cc(C(C)(C)C)c1
[C] Cc1cc(C)cc(CN2C(=O)COc3c(C)cc(C=C4SC(=S)NC4=O)cc32)c1
[D] O=C1NC(=S)SC1=Cc1ccc2c(c1)N(Cc1cccc(OC(F)(F)F)c1)C(=O)CO2
List items by pIC50 in falling order. Please list each label once, in the requested order. C, B, D, A

Every entry's value here was drawn from patent US7205295B2.
